- Target Or Test System: SOS1:KRAS (G12C) interaction (Homo sapiens (Human))
- Sequence (Q07889 564-1049, stated change not applied): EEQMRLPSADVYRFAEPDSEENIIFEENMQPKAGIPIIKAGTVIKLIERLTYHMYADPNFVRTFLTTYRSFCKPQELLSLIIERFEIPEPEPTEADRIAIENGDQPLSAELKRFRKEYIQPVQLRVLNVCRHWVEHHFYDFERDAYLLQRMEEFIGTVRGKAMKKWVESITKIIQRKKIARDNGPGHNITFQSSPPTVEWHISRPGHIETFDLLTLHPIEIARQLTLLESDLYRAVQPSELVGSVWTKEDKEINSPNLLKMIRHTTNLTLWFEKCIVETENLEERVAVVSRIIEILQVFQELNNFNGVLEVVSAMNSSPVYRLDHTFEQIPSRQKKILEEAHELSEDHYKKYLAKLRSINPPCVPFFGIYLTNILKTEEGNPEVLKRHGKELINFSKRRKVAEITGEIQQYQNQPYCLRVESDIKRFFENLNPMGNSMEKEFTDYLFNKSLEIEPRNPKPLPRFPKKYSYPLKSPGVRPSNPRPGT
- Assay Name: SOS1 KRas(G12C) FRET Assay
- Condition Set: 0.5 nM His10-SOS1 (res. 564-1049), 2.5 nM GST-KRAS G12C (res. 1-169), 2 hrs at RT
Reported Endpoint: pIC50
As a rule, pIC50 stands for the negative log10 of the concentration, concentration in M.

C[C@@H](NC(=O)c1cn([C@H]2CC23CC3)c(=O)cc1N[C@H]1[C@@H]2CN(C)C[C@@H]21)c1cccc(C(F)F)c1F (single isomer, unassigned) : 7.85

# input for lookup
Query: pIC50; subject: Cc1c([C@@H](C)NC(=O)c2cn(C3CCOCC3)c(=O)cc2NC2CCCn3cncc32)cccc1C(F)(F)F (stereo partly drawn)
7.68
